Reference source: the Human Domainome abundance scans (Beltran et al. 2025)

B1: Homeobox protein cut-like 1, residues 941 to 1008; numbered along this chain, P39880 (parent)
chain: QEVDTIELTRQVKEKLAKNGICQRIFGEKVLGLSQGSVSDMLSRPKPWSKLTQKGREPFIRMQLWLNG

Variants of: B1
Assay: abundance fitness (aPCA) (normalised: wild type 0, dead -1); higher = more abundant; growth selection in yeast, the domain comes from the species named
Conditions: Homo sapiens
Reported abundance fitness values are given for each entry in this list.

biopolymer.sequence: QEVDTIELTIQVKEKLAKNGICQRIFGEKVLGLSQGSVSDMLSRPKPWSKLTQKGREPFIRMQLWLNG
abundance fitness: -0.301
--
biopolymer.sequence: QEVDTIELTRQVKEQLAKNGICQRIFGEKVLGLSQGSVSDMLSRPKPWSKLTQKGREPFIRMQLWLNG
abundance fitness: -0.119
--
biopolymer.sequence: QEVDTIEWTRQVKEKLAKNGICQRIFGEKVLGLSQGSVSDMLSRPKPWSKLTQKGREPFIRMQLWLNG
abundance fitness: -0.157
--
biopolymer.sequence: QEVDTIELTRQVKEKLAKNGICQRIYGEKVLGLSQGSVSDMLSRPKPWSKLTQKGREPFIRMQLWLNG
abundance fitness: -0.741
--
biopolymer.sequence: QEVDTIELTRQVKESLAKNGICQRIFGEKVLGLSQGSVSDMLSRPKPWSKLTQKGREPFIRMQLWLNG
abundance fitness: -0.221
--
biopolymer.sequence: QEVDTIELTRQVKEKLAKNGICQRIFGLKVLGLSQGSVSDMLSRPKPWSKLTQKGREPFIRMQLWLNG
abundance fitness: -0.113
--
biopolymer.sequence: QEVDTIELTRQVKEKLAKNGICQRIFGEKVLGLSHGSVSDMLSRPKPWSKLTQKGREPFIRMQLWLNG
abundance fitness: -0.024
--
biopolymer.sequence: QEVDTISLTRQVKEKLAKNGICQRIFGEKVLGLSQGSVSDMLSRPKPWSKLTQKGREPFIRMQLWLNG
abundance fitness: 0.172
--
biopolymer.sequence: QEVDTIELTRQVKEKLAKNGICQRIFGEKVLGLSQGDVSDMLSRPKPWSKLTQKGREPFIRMQLWLNG
abundance fitness: 0.251
--
biopolymer.sequence: QEVDTIELTRQVKEKLAKNGICHRIFGEKVLGLSQGSVSDMLSRPKPWSKLTQKGREPFIRMQLWLNG
abundance fitness: -0.117
--
biopolymer.sequence: QEVDTIELTRQVKEKLAKNGIMQRIFGEKVLGLSQGSVSDMLSRPKPWSKLTQKGREPFIRMQLWLNG
abundance fitness: -0.062
--
biopolymer.sequence: QEVDTIELTRQVKEKLAKNGICQIIFGEKVLGLSQGSVSDMLSRPKPWSKLTQKGREPFIRMQLWLNG
abundance fitness: -0.29
--
biopolymer.sequence: QEVDTIELTRQVKEKLAKNGICQRIFGEKVLGLSQGSVYDMLSRPKPWSKLTQKGREPFIRMQLWLNG
abundance fitness: -0.094
--
biopolymer.sequence: QEVDTIELTRQVKEKLAKNGISQRIFGEKVLGLSQGSVSDMLSRPKPWSKLTQKGREPFIRMQLWLNG
abundance fitness: 0.049
--
biopolymer.sequence: QEVDTIELTRQVKEKLAKNGICQRIFGEKVLGLSQGTVSDMLSRPKPWSKLTQKGREPFIRMQLWLNG
abundance fitness: -0.104
--
biopolymer.sequence: QEVDTIELTRQVKEKLAKNGLCQRIFGEKVLGLSQGSVSDMLSRPKPWSKLTQKGREPFIRMQLWLNG
abundance fitness: -0.08
--
biopolymer.sequence: QEPDTIELTRQVKEKLAKNGICQRIFGEKVLGLSQGSVSDMLSRPKPWSKLTQKGREPFIRMQLWLNG
abundance fitness: -0.111
--
biopolymer.sequence: QEVDTIELTRQVKEKLAKNGICQRIFGEKVLGLSQGSVEDMLSRPKPWSKLTQKGREPFIRMQLWLNG
abundance fitness: 0.031
--
biopolymer.sequence: QEVDTIELTRQVKEKLAKNGICQRIFGEKVLLLSQGSVSDMLSRPKPWSKLTQKGREPFIRMQLWLNG
abundance fitness: -0.273
--
biopolymer.sequence: QEVDTIELTAQVKEKLAKNGICQRIFGEKVLGLSQGSVSDMLSRPKPWSKLTQKGREPFIRMQLWLNG
abundance fitness: -0.096
--
biopolymer.sequence: QEVDTIELTHQVKEKLAKNGICQRIFGEKVLGLSQGSVSDMLSRPKPWSKLTQKGREPFIRMQLWLNG
abundance fitness: -0.226
--
biopolymer.sequence: QEVDTIELTRQVKEKLAKNGICQRIFGEKVLGLSQGQVSDMLSRPKPWSKLTQKGREPFIRMQLWLNG
abundance fitness: 0.111
--
biopolymer.sequence: QEVDTIELTRQVKEKLAKNGICQRIFGEKVLGLVQGSVSDMLSRPKPWSKLTQKGREPFIRMQLWLNG
abundance fitness: -0.137
--
biopolymer.sequence: QEVDTIELTRQVKEKLYKNGICQRIFGEKVLGLSQGSVSDMLSRPKPWSKLTQKGREPFIRMQLWLNG
abundance fitness: -0.214
--
biopolymer.sequence: QEVDTIELTRQVKEKLLKNGICQRIFGEKVLGLSQGSVSDMLSRPKPWSKLTQKGREPFIRMQLWLNG
abundance fitness: -0.148
--
biopolymer.sequence: QEVDQIELTRQVKEKLAKNGICQRIFGEKVLGLSQGSVSDMLSRPKPWSKLTQKGREPFIRMQLWLNG
abundance fitness: -0.086
--
biopolymer.sequence: QEVDTIELTRQVKEKLQKNGICQRIFGEKVLGLSQGSVSDMLSRPKPWSKLTQKGREPFIRMQLWLNG
abundance fitness: -0.115
--
biopolymer.sequence: QEVDTIELTRQVKEKLAKNGICQRIFGEKVLGLSQGSVSDMLSRPKPHSKLTQKGREPFIRMQLWLNG
abundance fitness: -1.11
--
biopolymer.sequence: REVDTIELTRQVKEKLAKNGICQRIFGEKVLGLSQGSVSDMLSRPKPWSKLTQKGREPFIRMQLWLNG
abundance fitness: -0.046
--
biopolymer.sequence: QEVDTIELTRQVKEKLAWNGICQRIFGEKVLGLSQGSVSDMLSRPKPWSKLTQKGREPFIRMQLWLNG
abundance fitness: -0.272
--
biopolymer.sequence: QEVDTIELTRQVKEKLAKNGICQRIFGEKVLGLSQGSVSDYLSRPKPWSKLTQKGREPFIRMQLWLNG
abundance fitness: -0.011
--
biopolymer.sequence: QEVDTIELTRQVKEKLAKNAICQRIFGEKVLGLSQGSVSDMLSRPKPWSKLTQKGREPFIRMQLWLNG
abundance fitness: -0.135
--
biopolymer.sequence: QEVDTIELTRQVKEPLAKNGICQRIFGEKVLGLSQGSVSDMLSRPKPWSKLTQKGREPFIRMQLWLNG
abundance fitness: -0.052
--
biopolymer.sequence: QEVDTIELTRQVKEKLAKNGICQRIFGEKVLGTSQGSVSDMLSRPKPWSKLTQKGREPFIRMQLWLNG
abundance fitness: -0.06
--
biopolymer.sequence: QEVDTIELTRQRKEKLAKNGICQRIFGEKVLGLSQGSVSDMLSRPKPWSKLTQKGREPFIRMQLWLNG
abundance fitness: -0.131
--
biopolymer.sequence: QEVDTIELTRQVKEKLAKNGICQRIFGEKVLGLSQGSVSDMLSRPKPWSKLPQKGREPFIRMQLWLNG
abundance fitness: -0.343
--
biopolymer.sequence: QEVDTIELTRQVKEKLAKNGICQRIFGEKVLGLSQGSVADMLSRPKPWSKLTQKGREPFIRMQLWLNG
abundance fitness: 0.005
--
biopolymer.sequence: QEVDTIELTRQVKEKLAKNGICQRIFGEKVMGLSQGSVSDMLSRPKPWSKLTQKGREPFIRMQLWLNG
abundance fitness: -0.191
--
biopolymer.sequence: QEVDTIELTRQVKEKLAKNGICQRIFGEKVLGLSIGSVSDMLSRPKPWSKLTQKGREPFIRMQLWLNG
abundance fitness: -0.116
--
biopolymer.sequence: QEVDTIELTRQVKEKLAKNGICQRIFGESVLGLSQGSVSDMLSRPKPWSKLTQKGREPFIRMQLWLNG
abundance fitness: -0.12
--
biopolymer.sequence: TEVDTIELTRQVKEKLAKNGICQRIFGEKVLGLSQGSVSDMLSRPKPWSKLTQKGREPFIRMQLWLNG
abundance fitness: -0.038
--
biopolymer.sequence: QEVDTIELTRQVKEKLAKNGICQRIFGEKVLGLSQGSVSDLLSRPKPWSKLTQKGREPFIRMQLWLNG
abundance fitness: 0.027
--
biopolymer.sequence: QEVDTIELTRQVKEKLAKNGIFQRIFGEKVLGLSQGSVSDMLSRPKPWSKLTQKGREPFIRMQLWLNG
abundance fitness: -0.133
--
biopolymer.sequence: QEVDTIELRRQVKEKLAKNGICQRIFGEKVLGLSQGSVSDMLSRPKPWSKLTQKGREPFIRMQLWLNG
abundance fitness: -0.212
--
biopolymer.sequence: QEVDTIELTRQVKEKLAKNGICQRIFGEKVLGLSQGSVSDNLSRPKPWSKLTQKGREPFIRMQLWLNG
abundance fitness: -0.275
--
biopolymer.sequence: QEVDTIELTRQVKEKLAKNGICQRIFGEKVLGLSQGSVSDMLSRPKPQSKLTQKGREPFIRMQLWLNG
abundance fitness: -0.867
